test system: TK-10 renal; experiment: NCI-60 one-dose screen, 48 h (100 = growth as untreated, 0 = no growth, -100 = all killed); details: 10 µM unless noted
This is part of a sample that, as a whole, favours compounds with a hit. Of some 83,000 tested, about 20% had one in any assay.
List of growth values.
Give your result in % as a bare value.

Answered cases to consult:
>  <Compound>
COc1ccc(C2=Nc3c(N)ncnc3NC(c3cccc(Nc4ccnc5cc(C(F)(F)F)ccc45)c3)C2)cc1 (stereo not given)

>  <Measurement Unit>
%

>  <growth>
95.6

$$$$
>  <Compound>
Cc1[nH]c(C(=O)Nc2ccc(C(N)=O)cc2NC(C)C)c(Cl)c1Cl

>  <Measurement Unit>
%

>  <growth>
120

$$$$
>  <Compound>
CCOC(=O)c1c(C)nc2c(c1N)CC(=O)N2Cc1cc(OC)c(OC)c(OC)c1

>  <Measurement Unit>
%

>  <growth>
54.8

$$$$
>  <Compound>
CCCCn1sc(=O)n(Cc2ccc(CNC(=O)OCc3ccc4c(Br)cc(Br)c(O)c4n3)cc2)c1=O

>  <Measurement Unit>
%

>  <growth>
74.8

$$$$
>  <Compound>
O=C1NC(=C(Cl)Cl)/C(=N/S(=O)(=O)N2CCCCC2)N1

>  <Measurement Unit>
%

>  <growth>
13.9

$$$$

Supply reported growth belonging to this compound: COc1ccc2c(c1)c(-c1nc(-c3cn(C)c4ncccc34)cs1)cn2CCO
83

Supply reported growth belonging to this compound: COc1ncc2cc1NS(=O)(=O)c1cccc(c1)C(=O)NCC1=CC=C(S1)c1ncnc3c1SC2=C3C
-6.51

Supply reported growth belonging to this compound: COC(=O)c1c2c(c(C)[n+]([O-])c1C)C(=O)C=CC2=O
72.9

Supply reported growth belonging to this compound: C=C1C(=O)O[C@H]2[C@H]1CC/C(Cn1cc(-c3cc(C(F)(F)F)cc(C(F)(F)F)c3)nn1)=C\CC[C@@]1(C)O[C@@H]21
-99.4

Supply reported growth belonging to this compound: O=C(CCCCCCN1CC(=O)N2[C@@H](C3CCCCC3)c3[nH]c4ccccc4c3C[C@H]2C1=O)NO
48.5

====

test system: OVCAR-5 ovarian; test: NCI-60 one-dose screen, 48 h; conditions: 10 µM unless noted
About 83,000 compounds went through this panel and 20% of them were active in at least one assay; those are over-represented in the sample as a whole. Activity calls are given as the source filed them. Rule for the calls: active = growth percent below 10; inactive = the rest.
Pick one and only one: active, inactive

Example entries and their recorded answers appear below.
>  <Line Notation>
Cn1c(/C=C/[N+](=O)[O-])cc2ccccc21

>  <Category Label>
active

$$$$
>  <Line Notation>
COc1ccc2c(c1)c(-c1nc(-c3cn(C)c4ncccc34)cs1)cn2CCO

>  <Category Label>
inactive

$$$$
>  <Line Notation>
COc1ccccc1-n1c(-c2cc(O)ccc2C)cn2c3c(=O)[nH]c(=O)n(C)c3nc12

>  <Category Label>
inactive

$$$$
>  <Line Notation>
COc1cccc(/C=C2\COc3ccc(O)cc3C2=O)c1

>  <Category Label>
inactive

$$$$

Hi, sorry to bother you, what did the test record for CCOC(=O)n1cc(-c2nonc2-c2cn(C)c3ccccc23)c2ccccc21 ?
inactive

Hi, sorry to bother you, what did the test record for Clc1ccc(-c2nc(-c3c[nH]c4ncccc34)cs2)cc1 ?
inactive
